meta.source: ChEMBL document CHEMBL3286221

- ASSAY OVERVIEW: Cytotoxicity against human HCT15 cells after 48 hrs by sulforhodamine B assay
- Assay type: functional, cell-based
- SETTINGS: HCT-15, 48 h
This listing pairs molecules with measured IC50.
EXPERIMENTAL READOUT: IC50 (µM)

> print(dat)
                                  structure  assay.result
1  C=C1C(=O)O[C@@H]2[C@H]1CC[C@H](C)[C@]1(O)[C@@H](n3cc(COc4ccc(Cl)cc4)nn3)CC(=O)[C@@]21C            27
2  C=C1C(=O)O[C@@H]2[C@H]1CC[C@H](C)[C@]1(O)[C@@H](n3cc(CNn4ccc5cc(Br)ccc54)nn3)CC(=O)[C@@]21C            26
3  C=C1C(=O)O[C@@H]2[C@H]1CC[C@H](C)[C@]1(O)[C@@H](n3cc(CCc4ccccc4)nn3)CC(=O)[C@@]21C           4.3
